measure: melting point

COc1cc2c(cc1C(C)=O)CCCC2C (stereo not drawn)
48 to 50 °C
CN(C)CCCOc1ccc2sc(C(=O)Nc3ccccc3N)cc2c1
164 to 167 °C
CC1(C)C2CC[C@]1(C)C(=O)C(C(=O)Nc1cccc([N+](=O)[O-])c1)C2=O (stereo partly drawn)
100 to 102 °C
O=C(O)[C@@H]1Cc2cc(O)c(O)cc2CN1C(=O)c1ccccc1
189 to 192 °C
CC1(C)CC(=O)c2cc(SCc3ccccc3)[nH]c2C1
148 to 150 °C

Exercise: Return reported melting point; argument: Clc1ccc(C2(Cn3cncn3)CC(Cl)CO2)c(Cl)c1 (stereo not drawn)
Key: 97 °C

Provenance of the data: a melting point compilation (Tetko et al.; mined from patent text by program, amines drawn as free bases though some values may be those of a salt)
